Listed here: items and their measured pIC50.
- System: HIV-1 NL4-3 Env
- PROTOCOL_DESCRIPTION: microbe, parasite or virus in culture
- Assay type: cell-based
- APPLIED_CONDITIONS: Human immunodeficiency virus 1, NL43, 48 h, read-out: extrapolated IC50, infection with NL4-3 Env
# pIC50: negative log10 of molar concentration; output just the value

[[record]]
substance_smiles = "C(CCCCCCNC1=NCCN1)CCCCCNC1=NCCN1"
tested_on = "HIV-1 NL4-3 Env"
reported_endpoint = "pIC50"
reading = 5.59


# evaluate next
Request: So what pIC50 did C(CCCCCNC1=NCCN1)CCCCNC1=NCCN1 get with HIV-1 NL4-3 Env?
Result: 4.52
